Target: T1, human CD3 expressed on cells (Jurkat, a CD3+ human T-cell line; human T cells) (human, UniProt P07766 23-126; P04234 22-100)
T1 chain 1: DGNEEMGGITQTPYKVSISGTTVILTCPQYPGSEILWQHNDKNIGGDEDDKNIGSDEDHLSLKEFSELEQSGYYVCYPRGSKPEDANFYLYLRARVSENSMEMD
T1 chain 2: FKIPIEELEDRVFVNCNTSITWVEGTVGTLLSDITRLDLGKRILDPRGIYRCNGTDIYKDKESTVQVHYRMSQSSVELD
Assay: cell-based or functional assay
measurement.type: U937 Cytotoxicity Human T-cells [M] (EC50) (M)
Please respond with the number in M and leave the unit unwritten.

Qu. So what does the record say about U937 Cytotoxicity Human T-cells [M] (EC50) for H1H5781P (antibody, human IgG1, V domains shown) VH: EVQLVESGGGLVQPGRSLRLSCAASGFTFDDFTMHWVRQAPGKGLEWVSDISWNSGSIDYADSVKGRFTISRDNARNSLFLQMSSLRTEDTASYYCIKDKSGYGSYNYGLDVWGQGTTVTVSS VL: EIVLTQSPGTLSLSPGDRATLSCRASQSVSSIYLAWYQQKPGQAPRLLIHGASTRATGIPDRFSGSGSGTDFTLTISRLEPEDFALYYCHQRVSSPYTFGQGTKLEIK ?
Ans. 1.83e-12

Qu. Further, for H1H5772S (antibody, human IgG1, V domains shown) VH: QVQLVESGGGLVQPGRSLRLSCAASGFSFDDYAMHWVRQAPGQGLEWVSGISWNGGSRDYADSVKGRFTISRDNARNSLFLQMNSLFTEDTALYYCAKDKSGYGSYFYGMDVWGQGTTVTVSS VL: EIVLTQSPGILSLSPGDRATLSCRASQSIRNIYLAWYQQKPGQAPRLLIHGASTRATGIPDRFSGSGSGTDFTLTISRLEPEDFAVYYCQQRVSSPYTFGQGTKLEIK ?
Ans. 6.89e-13

Qu. Then this binder: H1H5797B (antibody, human IgG1, V domains shown) VH: QVQLVQSGTEVKKPGASVKVSCKASGYTFTGYYMHWVRQAPGQGLEWMGWINPNSDVTNYAQKFQGRVTLTRDTSISTAYIDLSRLRSDDTAIYYCARMGDGAVFDYWGQGTLVTVSS VL: DIQMTQSPSSLSASVGDRVTITCRASQRISSYLNWYQQKPGKAPKVLISVASSLQSGVPSRFSGSGSGTDFTLTISSLQPEDFASYYCQQSYNTPLTFGGGTKVEIKR
Ans. 5.76e-10

Qu. Follow-up item: H1H5755B (antibody, human IgG1, V domains shown) VH: EVQLVESGGGVVQPGRSLRLSCAASGFTFSNYGMHWVRQAPGKGLEWVTVILHDGSYKYYADSVKGRFTISRDNSKNTLHLQMNSLRTEDTAVYYCAKGPMFRGVPYNHYYGMDVWGQGTTVTVSS VL: DIQMTQSPSSLSASVGDRVTITCRASQGIRNDLGWYQQKPGKAPKRLIYAASSLQSGVSSRFSGSGSGTEFTLTISSLQPEDFATYYCLQHNSYPYTFGQGTKVEIKR
Ans. 5.16e-11

Qu. Try the binder H1H5778P (antibody, human IgG1, V domains shown) VH: EVQLVESGGGLVQPGRSLRLSCVASGFTFADFTMHWVRQAPGKGLEWVSGISWNSNSIDYADSVKGRFTISRDNAKKSLFLQMSSLRAEDTALYYCVKDRSGYSRFYYGMDVWGQGTTVTVSS VL: EIVMTQSPATLSVSPGERAILSCRASQNINSNLAWYQQKPGQAPRLLIYGASTRATGVPARFSGSGSGTEFTLTIRSLQSEDFAVYYCQQYYNWPITFGHGTRLEIK
Ans. 3.41e-13

Qu. Check H1H5780P (antibody, human IgG1, V domains shown) VH: EVQLVESGGGLVQPGRSLRLSCAASGFTFDDYAMHWVRQAPGKGLEWVSGISWNGGSKDYADSVKGRFTISRDNTRNSLSLQMNSLRIEDTALYYCAKDKSGYGSFYYGLDVWGQGTTVTVSS VL: EIVLTQSPGTLSLSPGDRATLSCRASQSIRSIYLAWYQQKPGQAPRLLIHGASTRATGIPDRFSGSGSGTDFTLTISRLEPEDFAVYYCQQRVSSPYTFGQGTKLEIK too.
Ans. 4.03e-12

Qu. Now the same for H1H5786B (antibody, human IgG1, V domains shown) VH: QVQLVESGAEVKKPGASVKVSCKTSGYTFTGYYMHWIRQAPGQGLEWMGWINPKSGGTNYAQKFQGRVTMTRDTSISTAYMELSRLRSDDMAVYYCARMGDGAVFDFWGQGTLVTVSS VL: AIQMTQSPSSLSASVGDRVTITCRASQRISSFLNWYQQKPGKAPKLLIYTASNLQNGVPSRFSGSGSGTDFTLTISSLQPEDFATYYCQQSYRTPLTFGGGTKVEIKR
Ans. 6.1e-11

Qu. Proceed to H1H5790B (antibody, human IgG1, V domains shown) VH: EVQLVESGGGVVQPGRSLRLSCAASGFTFSYYGMHWVRQAPGKGLEWVAVISFDGKNKYYADSVMGRFTISRDNSKNTLYLQMNSLRAEDSAVFFCARSYDILTGYGAGYSYHYGMDVWGQGTTVTVSS VL: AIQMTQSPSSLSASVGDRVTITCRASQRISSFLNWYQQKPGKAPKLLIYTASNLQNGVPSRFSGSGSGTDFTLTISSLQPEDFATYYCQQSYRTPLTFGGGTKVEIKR
Ans. 8.71e-11

Qu. Also, H1H5752P (antibody, human IgG1, V domains shown) VH: QVQLVESGGGVVQPGRSLRPSCAASGFSFRDYGMHWVRQAPGKGLEWMAHIWYNGKNKYYADSVKGRFTISRDNSKNTLYLQMNSLRPEDTAVYYCARDGVSARGTPFDYWGQGTLVTVSS VL: ETTLTQSPAFMSAAPGDKVSISCIASQYIDDDVNWYQQKPGETAIFIIQEASTLVPGISPRFSGSGYGTHFTLTINNIDSEDAAFYFCLQHDNFPYTFGQGTKLEIK please.
Ans. 1.85e-11

Qu. Entry H1H5795B (antibody, human IgG1, V domains shown) VH: EVQLVESGAEVKKPGASVKVSCKTSGYSFIGYYIHWMRQAPGQGLEWMGWINPKSGVTNYAQRFQGRVTMTRDTSISTAYMELSRLKSDDTAVYFCARMGDGAVFDFWGQGTLVTVSS VL: DIQLTQSPSSLSASVGDRVTITCRASQRISSFLNWYQQKPGKVPKLLIYTASNLQNGVPSRFSGTGSGTDFTLTISSLQPEDFATYYCQQSYRTPLTFGGGTKVDIKR please
Ans. 6.74e-11
